# assay-target: Ubiquitin carboxyl-terminal hydrolase 28 (Homo sapiens) (UniProt Q96RU2)
# Sequence (Q96RU2 whole entry, looked up): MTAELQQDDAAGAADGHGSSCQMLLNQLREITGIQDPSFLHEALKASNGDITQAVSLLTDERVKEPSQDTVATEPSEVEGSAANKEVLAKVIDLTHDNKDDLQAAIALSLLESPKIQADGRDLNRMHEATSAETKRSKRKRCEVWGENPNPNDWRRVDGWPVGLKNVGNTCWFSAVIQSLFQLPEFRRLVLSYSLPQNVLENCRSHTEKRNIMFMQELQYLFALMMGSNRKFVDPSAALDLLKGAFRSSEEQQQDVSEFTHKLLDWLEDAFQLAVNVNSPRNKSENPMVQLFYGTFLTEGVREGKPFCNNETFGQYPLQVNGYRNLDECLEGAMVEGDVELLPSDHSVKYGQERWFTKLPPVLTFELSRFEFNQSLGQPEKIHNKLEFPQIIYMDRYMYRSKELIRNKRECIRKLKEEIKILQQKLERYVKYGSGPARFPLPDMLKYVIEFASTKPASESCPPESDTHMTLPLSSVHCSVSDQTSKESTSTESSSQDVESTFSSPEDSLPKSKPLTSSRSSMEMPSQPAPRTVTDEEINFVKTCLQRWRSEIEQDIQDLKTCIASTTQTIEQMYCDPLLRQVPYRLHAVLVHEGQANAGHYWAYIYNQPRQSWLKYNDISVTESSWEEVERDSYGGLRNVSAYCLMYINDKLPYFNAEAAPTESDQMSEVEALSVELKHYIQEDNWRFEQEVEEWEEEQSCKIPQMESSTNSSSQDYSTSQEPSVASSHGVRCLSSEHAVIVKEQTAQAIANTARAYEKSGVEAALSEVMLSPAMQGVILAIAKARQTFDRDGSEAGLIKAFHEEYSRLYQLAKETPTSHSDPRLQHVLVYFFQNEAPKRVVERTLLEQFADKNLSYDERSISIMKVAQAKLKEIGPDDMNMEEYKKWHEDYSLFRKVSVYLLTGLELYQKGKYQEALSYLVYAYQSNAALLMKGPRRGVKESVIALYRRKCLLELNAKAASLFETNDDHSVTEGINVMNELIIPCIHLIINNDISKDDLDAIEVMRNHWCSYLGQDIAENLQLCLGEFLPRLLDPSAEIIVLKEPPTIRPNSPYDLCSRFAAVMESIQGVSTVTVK
# assay-explanation: Concentration-response biochemical assay confirming initial hits as inhibitors of ubiquitin-specific protease 28 (AID 1645866)
# study-conditions: purified USP28, ubiquitin-rhodamine fluorescence, 30 min
The source made the active and inactive calls.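 Rule for the calls: active = in confirmatory dose-response testing, peak deubiquitinase inhibition of 30% or more; inactive = the rest.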
Permitted responses: active, inactive

compound: Cc1ccc(NC(=O)c2cc(=O)n(C)c3c2c(=O)n(C)c(=O)n3C)c(C)c1
assay-target: Ubiquitin carboxyl-terminal hydrolase 28 (Homo sapiens) (UniProt Q96RU2)
class-name: inactive

Now let's try a different one.
GET /call?item= Clc1ccc(C[n+]2cc(-c3ccc(Cl)cc3)n3c2CCC3)cc1 returns the recorded outcome of this test.
active

----------
# assay-target: Ubiquitin carboxyl-terminal hydrolase 28 (Homo sapiens)
# assay-explanation: Concentration-response biochemical assay confirming initial hits as inhibitors of ubiquitin-specific protease 28 (AID 1645866)
# study-conditions: purified USP28, ubiquitin-rhodamine fluorescence, 30 min
Active and inactive are the calls of the source.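 The calls were made as follows: active = in confirmatory dose-response testing, peak deubiquitinase inhibition of 30% or more; inactive = the rest.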
Answer with one of the outcomes active, inactive

compound: Cc1ccc(S(=O)(=O)N2CCC3(CC2)NC(=O)c2ccccc2N3)c(C)c1
class-name: active
--
compound: COc1ccccc1-n1nnc(C(=O)Nc2ccc(Oc3ccccc3)cc2)c1C
class-name: active
--
compound: Cc1ccc(CNC(=O)CCCn2c(=O)c3sccc3n(CC(=O)Nc3cc(Cl)ccc3C)c2=O)cc1
class-name: active
--
compound: N#Cc1ccc(NC(=O)Nc2cccn(Cc3ccccc3Br)c2=O)cc1
class-name: active
--
compound: Oc1sc(C=Nc2cc(Cl)ccc2Cl)c2ccccc12
class-name: active

Given COc1cc(-c2nc(C(N)=O)c3[nH]c(=O)n(-c4ccc(C)cc4)c3n2)cc(OC)c1OC , state the outcome it received in this test.
active

What do we get for COc1ccc(NC(=O)CN2C(=O)c3ccccc3Sc3ccc(C(=O)N4CCCC4)cc32)cc1OC ?
active

For CCn1cc(-c2nc(-c3ccccc3)no2)c(=O)c2cc(F)ccc21 then?
active

Param item: Cn1c(=O)sc2cc(NC(=O)c3ccc(Br)cc3)ccc21
active

Same question for COc1ccc2nc3c(cc2c1)c(=O)n(C)c1c3c(=O)n(-c2ccccc2)c(=O)n1-c1ccccc1 please.
inactive

Please answer likewise for Cc1ccc(C(=O)N2CCCC3(C2)Nc2cccnc2NC3=NC2CCCC2)s1 (centres undefined)
inactive

Try this compound next: COc1ccc(OC)c(NC(=O)c2ccc(-n3nnnc3SC)cc2)c1
active

Now try Cc1ccc(CSC2=NS(=O)(=O)c3ccccc3N2)cc1 .
active

Try the compound O=C(Nc1cccc(C(F)(F)F)c1)c1cc2c(s1)-c1ccccc1OC2
active

And what about the compound CCc1ccc(C2c3c(oc4ccccc4c3=O)C(=O)N2c2nncs2)cc1 (centres undefined) ?
inactive

And for O=C(c1ccc(Cl)cc1)c1c[nH]cc1-c1c(F)cccc1Cl ?
active

Next compound up: COc1ccc(CN(C(=O)c2cc(-c3ccc(C)cc3)on2)C2CCS(=O)(=O)C2)cc1 (centres undefined)
active

Consider next the compound Cc1cc(C)c(O)c(-c2cc(C(=O)Nc3ccccc3Cl)[nH]n2)c1 in the same way.
active

Same question, CO[C@H]1/C=C/OC2(C)Oc3c(C)c(O)c4c(c3C2=O)C2(C=C(NC(=O)/C(C)=C\C=C\[C@H](C)[C@H](O)[C@@H](C)[C@@H](O)[C@@H](C)[C@H](OC(C)=O)C1C)C4=O)OCC(=O)O2 (some centres undefined) this time
inactive

----------
# assay-target: Ubiquitin carboxyl-terminal hydrolase 28 (Homo sapiens) (UniProt Q96RU2)
# assay-explanation: Concentration-response biochemical assay confirming initial hits as inhibitors of ubiquitin-specific protease 28 (AID 1645866)
# study-conditions: purified USP28, ubiquitin-rhodamine fluorescence, 30 min
The source made the active and inactive calls.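 Rule for the calls: active = in confirmatory dose-response testing, peak deubiquitinase inhibition of 30% or more; inactive = the rest.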
Respond using exactly one of the listed classes: active, inactive

compound: N#Cc1ccccc1Cn1c(=O)n(CCCCC(=O)NCCc2ccccc2)c(=O)c2ccccc21
class-name: active

So what was the verdict on COc1ccccc1CNC(=O)Nc1cccc2ccccc12 in this test?
active

Similarly, COc1ccc(CN=C2NS(=O)(=O)C(c3ccc(F)cc3)=C2C)cc1OC ?
active

// repeat for COc1ccc(NC(=O)c2ccc(-n3nnnc3SC)cc2)cc1Cl and report
active

Then CC1(O)CC(=O)c2c(cc3cc(O)cc(O)c3c2O)C1 (stereo unspecified) ?
active

Continue with Cc1cccc(NC(=O)c2nc(N3CCSCC3)c3cnn(C)c3n2)c1
inactive

----------
# assay-target: Ubiquitin carboxyl-terminal hydrolase 28 (Homo sapiens)
# assay-explanation: Concentration-response biochemical assay confirming initial hits as inhibitors of ubiquitin-specific protease 28 (AID 1645866)
# study-conditions: purified USP28, ubiquitin-rhodamine fluorescence, 30 min
The source made the active and inactive calls.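 Rule for the calls: active = in confirmatory dose-response testing, peak deubiquitinase inhibition of 30% or more; inactive = the rest.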
This listing pairs compounds with measured IC50.

The cases that follow already have their IC50 on record.
structure-smiles: COc1ccccc1NS(=O)(=O)c1ccc2oc(SCC(=O)c3ccccc3)nc2c1
IC50: > 50 µM (inactive)

structure-smiles: CCOc1ccc(-n2c(C)cc(/C=C(\C#N)c3nc4ccccc4[nH]3)c2C)cc1
IC50: > 50 µM (inactive)

structure-smiles: CCN(CCCNC(=O)c1ccc(Cn2c(=O)[nH]c3ccccc3c2=O)cc1)c1ccccc1
IC50: 13.6 µM

structure-smiles: COc1ccccc1-c1nc(-c2nnn(Cc3ccc(C)cc3)c2C)no1
IC50: 5.47 µM

Attention now shifts to the item below.
Could you share which IC50 value was measured for O=C(Nc1cc(Cl)cc(Cl)c1)c1csnn1 ?
15.9 µM

----------
Entries and their measured IC50 follow.
# assay-target: Ubiquitin carboxyl-terminal hydrolase 28 (Homo sapiens) (UniProt Q96RU2)
# assay-explanation: Concentration-response biochemical assay confirming initial hits as inhibitors of ubiquitin-specific protease 28 (AID 1645866)
# study-conditions: purified USP28, ubiquitin-rhodamine fluorescence, 30 min
Activity calls are given as the source filed them.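 The calls were made as follows: active = in confirmatory dose-response testing, peak deubiquitinase inhibition of 30% or more; inactive = the rest.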

compound: COC1C(O)=C2C(=O)O/C(C)=C/C=C/C=C/C=C/CC(c3ccccc3)NC(=O)/C=C/C=C/C=C\C=C\C2(C)C1O (stereo not given)
assay-target: Ubiquitin carboxyl-terminal hydrolase 28 (Homo sapiens) (UniProt Q96RU2)
result: > 50 µM (inactive)

Lab note: need IC50 with Ubiquitin carboxyl-terminal hydrolase 28 (Homo sapiens) (UniProt Q96RU2) for entry Cc1cccc(NC(=O)CSc2nnc(-c3n[nH]c4c3CCC4)n2N)c1C , please look it up.
17.6 µM

Record: Cc1ccc(C)c(CSC2=NCCN2C(=O)c2ccco2)c1
4.07 µM

Also need Cc1ccc(S(=O)(=O)Nc2ccccc2SCCS(=O)(=O)c2ccc(Cl)cc2)cc1 , thanks.
> 50 µM (inactive)

Moving on to the next compound: CC(CCc1ccccc1)NC(=O)Cn1c(=O)c2cccn2c2ccccc21 (stereo not given)
14.3 µM

Then what about the compound CC(=O)c1cccc(NC(=O)c2ccc(CN(c3ccc(C)c(C)c3)S(C)(=O)=O)cc2)c1 ?
2.2 µM

Now the compound CCOc1ccccc1NC(=O)Cn1ccn2nc(-c3ccc(OC)cc3)cc2c1=O
16.5 µM

Note, next up: CCCc1nc2sc3c(NCCCN4CCOCC4)ncnc3c2c2c1CCC2
0.743 µM

What about CN(Cc1ccccc1)S(=O)(=O)c1ccc2[nH]cc(C(=O)NCc3cccs3)c(=O)c2c1 ?
1.52 µM

Also need O=C(CSc1nnc2n1CCCCC2)Nc1ccc2[nH]c(=O)[nH]c2c1 , thanks.
34.8 µM

----------
# assay-target: UniProt:Q96RU2
# assay-explanation: Concentration-response biochemical assay confirming initial hits as inhibitors of ubiquitin-specific protease 28 (AID 1645866)
# study-conditions: purified USP28, ubiquitin-rhodamine fluorescence, 30 min
Activity calls are given as the source filed them.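 Rule for the calls: active = in confirmatory dose-response testing, peak deubiquitinase inhibition of 30% or more; inactive = the rest.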
The reply should be one of these categories: active, inactive

molecule: N#Cc1cc2c(nc1SCC(=O)NCc1ccccc1)CCCC2
class-name: inactive

What classification did COc1ccccc1C(=O)NCC(c1ccc2c(c1)CCCN2C)N1CCCC1 (configuration not stated) end up with in this test?
inactive

Subsequent entry: O=C(Nc1ccc2c(c1)OCCO2)Nc1nnc(CC(=O)N2CCCCC2)s1
active

Also CC(=O)CN1CC2(CCN(Cc3ccc(F)cc3)CC2)COc2ccccc2S1(=O)=O , if possible.
inactive

Entry to check: CCCn1c(=O)n(CC(=O)c2ccccc2F)c2c(C(N)=O)nc(-c3ccco3)nc21
inactive

Also, O=C(CNS(=O)(=O)c1ccc(F)cc1)N1CCCC(c2nnc3ccccn23)C1 (configuration not stated) please.
active

And what about the molecule Nc1c(-c2ccc(Cl)cc2)cnc2nc(Sc3ncc(C(F)(F)F)cc3Cl)nn12 ?
inactive

Now give it for O=C(NCCc1ccccn1)c1cn2ccnc(-c3ccc(F)cc3)c2n1 too.
inactive

Consider next the molecule O=C(c1nnn(Cc2ccc(Cl)cc2)c1-n1cccc1)N1CCCC1 in the same way.
active

Would you mind doing O=C(CSc1ncnc2c1oc1ccccc12)Nc1ccc2c(c1)OCCO2 as well?
active

Repeat for the following molecule: Cc1cccc(O)c1-c1nc2c(-c3nc4c(C(=O)O)cccc4o3)cccc2o1
inactive

And then CC1=C[C@H]2N(c3ccc(C)cc31)[C@H](C(=O)c1cccs1)[C@@H](C(=O)c1ccc(F)cc1)[C@]21C(=O)Nc2ccccc21 , what is it?
inactive
